Quick list: Number per entry.
Tested on: Mus musculus
assay_method_text: Number of Plasmodium berghei infected mice died on day 9 at 40 mg/kg
Format: functional

| molecule | Number |
| --- | --- |
| Clc1ccc2c(NCCCOCCCCOCCCNc3ccnc4cc(Cl)ccc34)ccnc2c1 | 2 |
| Clc1ccc2c(NCCN3CCN(c4ccnc5cc(Cl)ccc45)CC3)ccnc2c1 | 1 |
| CN(CCCNc1ccnc2cc(Cl)ccc12)CCCNc1ccnc2cc(Cl)ccc12 | 2 |
| Clc1ccc2c(NCCOCCOCCNc3ccnc4cc(Cl)ccc34)ccnc2c1 | 2 |
| Clc1ccc2c(NCCCOCCOCCOCCCNc3ccnc4cc(Cl)ccc34)ccnc2c1 | 3 |

---

Quick list: IC50 per entry.
Tested on: Plasmodium falciparum
assay_method_text: In vitro inhibition of hematin polymerization in Plasmodium falciparum
Format: functional

| molecule | relation_operator | IC50 [µM] |
| --- | --- | --- |
| Clc1ccc2c(N3CCN(CN4CCN(c5ccnc6cc(Cl)ccc56)CC4)CC3)ccnc2c1 | > | 2500 |
| Clc1ccc2c(NCCCCCCNCCCCCCNc3ccnc4cc(Cl)ccc34)ccnc2c1 | = | 7 |
| Clc1ccc2c(NCCOCCOCCNc3ccnc4cc(Cl)ccc34)ccnc2c1 | = | 15 |
| Clc1ccc2c(NCCCOCCOCCOCCCNc3ccnc4cc(Cl)ccc34)ccnc2c1 | = | 20 |

The measured values listed here are drawn from ChEMBL document CHEMBL1131162.
